Source of measurements: patent US20240208961A1

Test: Pharmacokinetic studies of certain compounds in female Balb/c mice (Example 5)
Type: in vivo
Conditions: female, Balb/c, mouse, plasma, po, 30 mg/kg, I-27 PO 30 mg/kg, 1 hr, read-out: Plasma concentration Individual
Description: Pharmacokinetic studies were performed using Balb/c mice, 15-20 g, 6-9 weeks, female, N=9, purchased from Jihui Laboratory Animal Co. LTD. For compound I-29, Balb/c mice, 19-21 g, 9-11 weeks, female, N=9, were used. […] Plasma samples were analyzed using LC-MS using a calibration curve of known concentrations. The results of these studies are summarized in Tables 11-21 below and in FIGS. 2-8. […] BQL=below quantifiable limit for compound in female Balb/c mouse plasma samples. […]
measurement-name: concentration at 1 h (ng/mL)
Kindly provide the numeric value in ng/mL only, without the unit symbol.

(Q) Param item = CC(C)Cc1sc(Nc2ncc(-c3cccs3)cc2C(=O)O)nc1C1(C)CCCCC1 [Compound I-27] ; retrieve measured concentration at 1 h.
(A) 1930

----------
test: Pharmacokinetic studies of certain compounds in female Balb/c mice (Example 5); type: in vivo; conditions: female, Balb/c, mouse, plasma, iv, 1 mg/kg, I-8 IV 1 mg/kg, 4 hr, read-out: Plasma concentration Mean
measurement-name: concentration at 4 hr (ng/mL)
// units = ng/mL; emit number, no label

(Q) Endpoint output: concentration at 4 hr of `CC(C)Cc1sc(Nc2ncc(-c3cccs3)cc2C(=O)O)nc1C1=CCCC1` . Value?
(A) 8.62

----------
test: Pharmacokinetic studies of certain compounds in female Balb/c mice (Example 5); format: in vivo; settings: mouse, plasma, I-27 IV 1 mg/kg
measurement-name: AUC(0-inf) (ng·h/mL)
Your answer should be a plain number; it is taken to be in ng·h/mL.

(Q) # input compound: CC(C)Cc1sc(Nc2ncc(-c3cccs3)cc2C(=O)O)nc1C1(C)CCCCC1 [Compound I-27] ; wanted: its AUC(0-inf)
(A) 2170

----------
test: Pharmacokinetic study of I-11 in female BALB/c mice (Example 4); assay type: in vivo, Balb/c mouse; details: female, BALB/c, mouse, plasma, iv, 5 mg/kg, IV 5 mg/kg, 8 hr, read-out: Plasma concentration Individual
measurement-name: concentration at 8 hr (ng/mL)
Answer in ng/mL, number only, no unit symbol.

(Q) If you can, please state the reported concentration at 8 hr value of `CC(C)Cc1sc(Nc2ncc(-c3cccs3)cc2C(=O)O)nc1C(C)(C)C` .
(A) 19

----------
Test: Pharmacokinetic studies of certain compounds in female Balb/c mice (Example 5)
Type: in vivo
Conditions: female, Balb/c, mouse, plasma, po, 30 mg/kg, I-3 PO 30 mg/kg, 1 hr, read-out: Plasma concentration Mean
Protocol: Pharmacokinetic studies were performed using Balb/c mice, 15-20 g, 6-9 weeks, female, N=9, purchased from Jihui Laboratory Animal Co. LTD. For compound I-29, Balb/c mice, 19-21 g, 9-11 weeks, female, N=9, were used. […] Plasma samples were analyzed using LC-MS using a calibration curve of known concentrations. The results of these studies are summarized in Tables 11-21 below and in FIGS. 2-8. […] BQL=below quantifiable limit for compound in female Balb/c mouse plasma samples. […]
measurement-name: concentration at 1 hr (ng/mL)
Give your result in ng/mL as a bare value.

(Q) Given the compound `CC(C)Cc1sc(Nc2ncc(-c3cccs3)cc2C(=O)O)nc1C1CCCCC1` , what is its reported concentration at 1 hr?
(A) 1590

----------
test: Pharmacokinetic studies of certain compounds in female Balb/c mice (Example 5); format: in vivo; conditions: female, Balb/c, mouse, plasma, po, 30 mg/kg, I-1 PO 30 mg/kg, 1 hr, read-out: Plasma concentration Mean
measurement-name: concentration at 1 hr (ng/mL)
Form entry: value (ng/mL) — number only.

(Q) # lookup: concentration at 1 hr of `CC(C)Cc1sc(Nc2ncc(-c3cccs3)cc2C(=O)O)nc1C1=CCOCC1`
(A) 470

----------
test: Pharmacokinetic studies of certain compounds in female Balb/c mice (Example 5); assay type: in vivo; settings: female, Balb/c, mouse, plasma, iv, 1 mg/kg, I-8 IV 1 mg/kg, 0.083 hr, read-out: Plasma concentration Individual
measurement-name: concentration at 0.083 hr (ng/mL)
Write the answer as a number in ng/mL, unit excluded.

(Q) Give the measured concentration at 0.083 hr of CC(C)Cc1sc(Nc2ncc(-c3cccs3)cc2C(=O)O)nc1C1=CCCC1 [Compound I-8] .
(A) 1780

----------
experiment: Pharmacokinetic studies of certain compounds in female Balb/c mice (Example 5); type: in vivo; details: female, Balb/c, mouse, plasma, po, 30 mg/kg, I-27 PO 30 mg/kg, 8 hr, read-out: Plasma concentration Mean
measurement-name: concentration at 8 h (ng/mL)
Only the number, expressed in ng/mL, is required.

(Q) Any idea what concentration at 8 h was measured for `CC(C)Cc1sc(Nc2ncc(-c3cccs3)cc2C(=O)O)nc1C1(C)CCCCC1` ?
(A) 607

----------
test: Pharmacokinetic studies of certain compounds in female Balb/c mice (Example 5); type: in vivo; conditions: mouse, plasma, I-29 PO 23.8 mg/kg
measurement-name: AUC(0-inf) (ng·h/mL)
Number in ng·h/mL, nothing else.

(Q) Tell me the measured AUC(0-inf) of `CC(C)Cc1sc(Nc2ncc(-c3cccs3)cc2C(=O)O)nc1C1CCC(F)(F)CC1` , please.
(A) 2430

----------
test: Pharmacokinetic study of I-11 in female BALB/c mice (Example 4); type: in vivo, Balb/c mouse; settings: female, BALB/c, mouse, plasma, po, 50 mg/kg, PO 50 mg/kg, 2 hr, read-out: Plasma concentration Mean
measurement-name: concentration at 2 hr (ng/mL)
Write the number in ng/mL without appending the unit.

(Q) Requested field: concentration at 2 hr. Item: CC(C)Cc1sc(Nc2ncc(-c3cccs3)cc2C(=O)O)nc1C(C)(C)C [Compound I-11]
(A) 6310

----------
experiment: Pharmacokinetic studies of certain compounds in female Balb/c mice (Example 5); format: in vivo; details: mouse, plasma, I-29 PO 23.8 mg/kg
measurement-name: Tmax (h)
Your answer is read as h, so omit the unit and give the number.

(Q) # query: Tmax of entry `CC(C)Cc1sc(Nc2ncc(-c3cccs3)cc2C(=O)O)nc1C1CCC(F)(F)CC1`
(A) 2

----------
assay: Pharmacokinetic studies of certain compounds in female Balb/c mice (Example 5); assay type: in vivo; conditions: female, Balb/c, mouse, plasma, po, 30 mg/kg, I-27 PO 30 mg/kg, 8 hr, read-out: Plasma concentration Individual
measurement-name: concentration at 8 h (ng/mL)
Value expressed in ng/mL; do not type the unit.

(Q) I have this compound here, CC(C)Cc1sc(Nc2ncc(-c3cccs3)cc2C(=O)O)nc1C1(C)CCCCC1 [Compound I-27] , and I need its recorded concentration at 8 h.
(A) 613

----------
experiment: Pharmacokinetic studies of certain compounds in female Balb/c mice (Example 5); type: in vivo; conditions: female, Balb/c, mouse, plasma, po, 30 mg/kg, I-1 PO 30 mg/kg, 0.5 hr, read-out: Plasma concentration Mean
measurement-name: concentration at 0.5 h (ng/mL)
Quick reminder: number only, in ng/mL, skip the unit.

(Q) # query: concentration at 0.5 h of entry CC(C)Cc1sc(Nc2ncc(-c3cccs3)cc2C(=O)O)nc1C1=CCOCC1 [Compound I-1]
(A) 427

----------
assay: Pharmacokinetic studies of certain compounds in female Balb/c mice (Example 5); assay type: in vivo; details: female, Balb/c, mouse, plasma, po, 30 mg/kg, I-27 PO 30 mg/kg, 24 hr, read-out: Plasma concentration Mean
measurement-name: concentration at 24 h (ng/mL)
I only need the number, in ng/mL, no unit after it.

(Q) Which concentration at 24 h is listed for CC(C)Cc1sc(Nc2ncc(-c3cccs3)cc2C(=O)O)nc1C1(C)CCCCC1 [Compound I-27] ?
(A) 11.8

----------
Test: Pharmacokinetic studies of certain compounds in female Balb/c mice (Example 5)
Assay type: in vivo
Conditions: mouse, plasma, I-27 PO 30 mg/kg
Experimental: Pharmacokinetic studies were performed using Balb/c mice, 15-20 g, 6-9 weeks, female, N=9, purchased from Jihui Laboratory Animal Co. LTD. For compound I-29, Balb/c mice, 19-21 g, 9-11 weeks, female, N=9, were used. […] Plasma samples were analyzed using LC-MS using a calibration curve of known concentrations. The results of these studies are summarized in Tables 11-21 below and in FIGS. 2-8. […] BQL=below quantifiable limit for compound in female Balb/c mouse plasma samples. […]
measurement-name: MRT inf (h)
Output spec: scalar in h, unitless text.

(Q) MRT inf lookup needed for `CC(C)Cc1sc(Nc2ncc(-c3cccs3)cc2C(=O)O)nc1C1(C)CCCCC1` , thanks.
(A) 4.74
